Target: Recombinant human his-tagged IGF R extracellular domain protein (human) (UniProt P08069)
Assay: SPR, Ab captured via anti-huIgG Fc, dissociation at pH 6
readout name: Kd (nM)
Numeric answer only, unit nM assumed.

Some solved entries appear below for comparison.
binder	obs value
VRDN-02050 (antibody, V domains shown) VH: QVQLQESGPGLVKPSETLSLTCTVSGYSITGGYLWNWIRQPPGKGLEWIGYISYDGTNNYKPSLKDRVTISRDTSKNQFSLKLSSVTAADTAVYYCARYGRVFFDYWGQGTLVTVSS VL: DIVMTQSPLSLPVTPGEPASISCRSSQSIVHSNGNTYLQWYLQKPGQSPQLLIYKVSNRLHGVPDRFSGSGSGTDFTLKISRVEAEDVGVYYCFQGSHVPWTFGQGTKVEIK	1.2
VRDN-02007 (antibody, V domains shown) VH: QVQLQESGPGLVKPSETLSLTCTVSGYSITGHYLWNWIRQPPGKGLEWIGYISYDGTNNYKPSLKDRVTISRDTSKNQFSLKLSSVTAADTAVYYCARYGRVFFDYWGQGTLVTVSS VL: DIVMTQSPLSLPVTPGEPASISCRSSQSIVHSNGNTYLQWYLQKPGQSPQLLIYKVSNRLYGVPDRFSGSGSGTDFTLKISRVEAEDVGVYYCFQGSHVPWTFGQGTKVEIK	10.2
VRDN-02017 (antibody, V domains shown) VH: QVQLQESGPGLVKPSETLSLTCTVSGYSITGGYLWNWIRQPPGKGLEWIGYISYDHTNNYKPSLKDRVTISRDTSKNQFSLKLSSVTAADTAVYYCARYGRVFFDYWGQGTLVTVSS VL: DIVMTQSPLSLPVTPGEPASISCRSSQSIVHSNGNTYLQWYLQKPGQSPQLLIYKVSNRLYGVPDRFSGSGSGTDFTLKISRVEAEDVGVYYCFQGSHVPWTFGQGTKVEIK	1.14
VRDN-02012 (antibody, V domains shown) VH: QVQLQESGPGLVKPSETLSLTCTVSGYSITGGYLWNWIRQPPGKGLEWIGHISYDGTNNYKPSLKDRVTISRDTSKNQFSLKLSSVTAADTAVYYCARYGRVFFDYWGQGTLVTVSS VL: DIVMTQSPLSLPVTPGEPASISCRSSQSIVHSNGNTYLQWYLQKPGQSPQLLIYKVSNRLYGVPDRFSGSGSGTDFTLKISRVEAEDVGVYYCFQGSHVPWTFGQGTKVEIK	1.01

Next:
Any idea what Kd was measured for VRDN-02043 (antibody, V domains shown) VH: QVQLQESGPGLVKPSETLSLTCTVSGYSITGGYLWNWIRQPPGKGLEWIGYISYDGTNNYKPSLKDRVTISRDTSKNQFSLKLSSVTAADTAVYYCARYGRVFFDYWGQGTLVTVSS VL: DIVMTQSPLSLPVTPGEPASISCRSSQSIVHSNGNTYLHWYLQKPGQSPQLLIYKVSNRLYGVPDRFSGSGSGTDFTLKISRVEAEDVGVYYCFQGSHVPWTFGQGTKVEIK ? 1.13

Origin of the recorded values: patent US20240360227A1
